The measured values listed here are drawn from patent US20250057918A1.

- Test Target: T1, human IL-18BP (amino acids 31-194) (human, UniProt O95998 31-194, biotinylated on the AviTag (BirA ligase) where immobilized or used for staining)
- T1 construct: Secreted decoy receptor; made in insect cells (gp67 signal peptide); also called hIL-18BP
- T1 sequence: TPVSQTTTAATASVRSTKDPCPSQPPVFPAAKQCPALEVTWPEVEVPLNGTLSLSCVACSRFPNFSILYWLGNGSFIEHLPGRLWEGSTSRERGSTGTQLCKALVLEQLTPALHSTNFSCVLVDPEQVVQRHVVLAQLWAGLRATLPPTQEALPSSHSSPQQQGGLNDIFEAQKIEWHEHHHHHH
- Procedure Summary: SPR; KD BP / KD Ra normalized to WT IL-18
Recorded Metric: IL-18 BP:Ra Dissociation Constant Ratio

binder="6-12 (ligand, recombinant with C-terminal hexahistidine tag in SPR and cell assays; also called h6-12; version 2.0 human DR-IL-18 variant) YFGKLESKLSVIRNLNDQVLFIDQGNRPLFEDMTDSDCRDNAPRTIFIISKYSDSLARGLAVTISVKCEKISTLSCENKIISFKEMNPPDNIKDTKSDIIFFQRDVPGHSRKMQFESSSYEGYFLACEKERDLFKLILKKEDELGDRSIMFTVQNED" recorded_metric="IL-18 BP:Ra Dissociation Constant Ratio" value_reported="> 9.32e+06"
binder="hCS4 (ligand, recombinant with C-terminal hexahistidine tag in SPR and cell assays) RFGKLESKLSVIRNLNDQVLFIDQGNRPLFEDMTDSDCRDNAPRTIFIISTYRDSQPRGKAVTISVKCEKISTLSCENKIISFKEMNPPDNIKDTKSDIIFFQRNVPGHKYKMQFESSSYEGYFLACEKERDLFKLILKKEDELGDRSIMFTVQNED" recorded_metric="IL-18 BP:Ra Dissociation Constant Ratio" value_reported=32200
binder="6-29 (ligand, recombinant with C-terminal hexahistidine tag in SPR and cell assays; also called h6-29; version 2.0 human DR-IL-18 variant) YFGKLESKLSVIRNLNDQVLFIDQGNRPLFEDMTDSDCRDNAPRTIFIISKYSDSRARGLAVTISVKCEKISTLSCENKIISFKEMNPPDNIKDTKSDIIFFQRNVPGHGRKMQFESSSYEGYFLACEKERDLFKLILKKEDELGDRSIMFTVQNED" recorded_metric="IL-18 BP:Ra Dissociation Constant Ratio" value_reported="> 7.59e+06"
